Hello, the source for this data is PubChem BioAssay (NCI), in case you need it.

Tested on: CAKI-1 renal
assay_name: NCI-60 one-dose screen, 48 h
cond: 10 µM unless noted
Compounds without any hit were thinned out: in the full panel of roughly 83,000, 20% have a hit. Active and inactive are the calls of the source. How the source made its calls: active means growth percent below 10; inactive means the rest.
Entry note: the call must match one of true (1) = active, false (0) = inactive

Examples with answers:
molecule | assay_target | discrete_label
CCOC(=O)C1=C(CCl)NC(=O)NC1c1ccc2c(c1)OCO2 (stereo unspecified) | CAKI-1 renal | false (0)
CCCCOc1ccc(/C=N/Nc2cc(C)nc3ccc(Br)cc23)cc1 | CAKI-1 renal | false (0)
CCCCCOc1ccc(/C=N/Nc2cc(C)nc3ccc(Cl)cc23)cc1 | CAKI-1 renal | false (0)

What did the test return for NS(=O)(=O)c1ccc(CCN2C(=O)C=CC2=O)cc1 ?
false (0)

Please indicate how the test categorized O=C1Nc2cc(-c3ccc(NC(=O)C4CC4)cc3)ccc2/C1=C/c1ccc[nH]1 .
false (0)

Field: outcome | Entry: COc1ccc(-c2nc(S(=O)(=O)c3ccccc3)c(S(=O)CC(=O)N3CCC(C)CC3)o2)cc1 (stereo unspecified)
false (0)

What call does the record list for Brc1ccc(Nc2csc(-c3ccccn3)n2)cc1 ?
false (0)

Please let me know the test result on file for ClC1=C(Br)C(Br)(Br)C(=C(Br)Br)C1(Br)Br .
false (0)

For Cc1cc2nc3c4ccc(Br)cc4n(CCN(C)C)c3nc2cc1C , which call appears in the assay record?
true (1)

State the result this test recorded for Nc1n[nH]c2cccc(C#Cc3cccc(C(=O)Nc4cccc(C(F)(F)F)c4)c3)c12 .
false (0)

Test call, this molecule: CCOC(=O)[C@@H](C)C[C@H](Cc1ccccc1)NC(=O)c1csc([C@@H](C[C@H](C(C)C)N(C)C(=O)[C@@H](NC(=O)[C@H]2C[C@H](O[Si](C)(C)C(C)(C)C)CCN2C)C(C)C)OC(C)=O)n1
false (0)

###

Tested on: UACC-257 melanoma
assay_name: NCI-60 one-dose screen, 48 h (100 = growth as untreated, 0 = no growth, -100 = all killed)
cond: 10 µM unless noted
Protocol: Cells are grown in 96 well plates and exposed to the test compound for 48 hours. Compounds are tested at a single concentration, which is 10^-5 M for most compounds. The reported endpoint is percent growth (GI% or GIPRCNT), where numbers from 0 - 100% represent growth inhibition, and numbers from -100% - 0 represent cell death. For example, a value of 40 represents 60% growth inhibition. A value of 0 means no net growth occurred over the course of the experiment. […]
About 83,000 compounds went through this panel and 20% of them were active in at least one assay; those are over-represented in the sample as a whole. The source made the active and inactive calls. Rule for the calls: active = growth percent below 10; inactive = the rest.
// growth lookup, one value per entry

Please review the entries below; each comes with its answer.
compound | growth
COc1cc2c(-c3cc4c(cc3CNCCc3ccc5c(c3)OCO5)OCO4)cccc2c(OC)c1O | 96.1% (inactive)
COc1ccc(-c2cnc3c(-c4cccc5ncccc45)cnn3c2)cc1 | 51.3% (inactive)
O=C(/C(=C\c1ccc([N+](=O)[O-])cc1)S(=O)Cc1ccc(Cl)cc1)c1ccc(Cl)cc1 (centres undefined) | 100% (inactive)
O=C(/C=C/c1c(-c2ccc(Cl)cc2)nn(-c2ccccc2)c1C(F)(F)F)c1ccc(Cl)cc1 | 104% (inactive)
O=C(/C=C/c1ccc[nH]1)c1ccc(-n2ccc(C(F)(F)F)n2)c(F)c1 | 99.7% (inactive)

Requested read-out: growth. Entry: C/C=C(\C)C(=O)NC1=CC[C@@]2(C)C(=CCC3C2CC[C@@]2(C)C3CC[C@@H]2C(C)N(C)C)C1=O (some centres undefined)
2.46% (active)

What does the data say about its growth? Entry: CCCCOc1ccc(/C=N/Nc2cc(C)nc3ccc(Br)cc23)cc1
96.3% (inactive)

Fill in the blank: the reported growth of O=C(Cn1c[n+](CC(=O)c2ccc(-c3ccccc3)cc2)c2ccccc21)Nc1cccc2cccnc12 is ____.
10.1% (inactive)

Given N#Cc1c(-c2ccccc2)nc2c(c(-c3ccccc3)nn2-c2ccccc2)c1-c1ccc(O)cc1 , state its recorded growth.
71.3% (inactive)
